Value source: ChEMBL document CHEMBL1201862

# maps each entry to its GI50
System: MDA-N
Test: NCI tumour cell line growth inhibition, 48 h
Active and inactive are the calls of the source. Rule as the data show it: active = GI50 up to about 1.1 µM and inactive = higher.
EXPERIMENTAL READOUT: GI50

In [3]: df
Out[3]:
               structure_smiles_string   experimental_value
0    CN(C)C(=S)/N=c1\ssc(=S)n1Cc1cccs1      604 nM (active)
1  COc1cc(/C=C\c2ccc(SC)cc2)cc(OC)c1OC     < 10 nM (active)
2                 COn1cc(C=O)c2ccccc21  23600 nM (inactive)

* * *

Tested on: M19-MEL
Assay: NCI tumour cell line growth inhibition, 48 h
Calls of active or inactive are those of the source. Rule as the data show it: active = GI50 up to about 1.1 µM and inactive = higher.
Possible outcomes: active, inactive

COMPOUND	LABEL VALUE
COC(=O)C1=C(c2ccc3c(c2)OCO3)OC(c2ccc3c(c2)OCO3)C1 (stereo not given)	inactive
CC(C)(C)c1nc2c(o1)/C(=N\c1ccccc1)c1ccccc1C2=O	active
CCOC(=O)CC1(c2cccc3ccccc23)OC(=O)c2ccccc21 (stereo not given)	inactive
COc1cc(C)c(C)c(OC(=O)c2c(C)c(C)c(OC)c(C)c2OC)c1C	inactive
c1ccc2c(c1)C1CCCCCC21N1CCOCC1 (stereo not given)	inactive
CC1CC2(CC[C@@H]1O)OCCO2 (stereo not given in full)	inactive
O=C(c1ccccc1)N1C2CCC1C(C(F)(F)F)=C2C(F)(F)F	inactive
CN1CCN(C)C12C=c1ccccc1=CC21CC1	inactive
O=S(=O)(C1=CC(S(=O)(=O)c2ccccc2)COC1)c1ccccc1 (stereo not given)	inactive
CCOC(=O)C(=O)Nc1cc(Cl)c(Cl)cc1Cl	inactive
COc1cc2c(cc1OC)C(CC1=C(c3ccccc3)CN3CCc4cc(OC)c(OC)cc4C3C1)NCC2 (stereo not given)	inactive
NNC(=O)N/N=C1\CN(c2ccc(Cl)cc2Cl)C(=O)C(=O)C1c1nc2ccccc2o1 (stereo not given)	inactive
CC(C)OP(=O)(OC(C)C)/C(=N/Nc1ccc([N+](=O)[O-])cc1)NCCN/C(=N\Nc1ccc([N+](=O)[O-])cc1)P(=O)(OC(C)C)OC(C)C	inactive
O=C1c2ccccc2NC1(c1ccccc1)c1c(-c2ccccc2)[nH]c2ccccc12 (stereo not given)	inactive
CS(=O)(=O)OCCn1cnc2nc(NC(=O)c3ccccc3)[nH]c(=O)c21	inactive
C=C[C@]1(C)CCC2=C(CCC3C2(C)CCC[C@@]3(C)COC(C)=O)C1 (stereo not given in full)	inactive
Cc1ccc(Nc2nc(C)c(C(/C=C/c3ccc(/C=C/C(=N/NC(=O)C[n+]4ccccc4)c4sc(Nc5ccc(C)cc5[N+](=O)[O-])nc4C)cc3)=N\NC(=O)C[n+]3ccccc3)s2)c([N+](=O)[O-])c1	inactive
CN(C)C(=S)/N=c1\ssc(=S)n1Cc1cccs1	inactive
Cc1ccc(NC(=O)CC(=O)N2N=C(N(CCC#N)c3cccc(C)c3)CC2c2ccccc2)cc1 (stereo not given)	inactive
COCN(C)c1nc(N(C)C)nc(N(C)C)n1	inactive
